Test system: NHBE cells
Protocol details: Biolog metabolic array: substrate use by NHBE cells with or without CA09 infection
Type: cell-based, human
Test parameters: Control (uninfected) NHBE cells, 2 hr
Record fulfilled whenever 590 nm absorbance normalized to zero hour (substrate use), 2 hr is at 0.9 or higher; record not fulfilled when lower.

[ask] Is 590 nm absorbance normalized to zero hour (substrate use), 2 hr at least 0.9? Consider OC[C@@H](O)[C@@H](O)[C@@H](O)CO [Adonitol]
[reply] not fulfilled

[ask] Is 590 nm absorbance normalized to zero hour (substrate use), 2 hr at least 0.9? Consider O=C[C@H](O)[C@@H](O)[C@H](O)[C@H](O)COP(=O)(O)O [D-Glucose-6-Phosphate]
[reply] fulfilled

[ask] Is 590 nm absorbance normalized to zero hour (substrate use), 2 hr at least 0.9? Consider O=C(O)[C@H](O)[C@@H](O)[C@H](O)[C@H](O)CO[C@H]1O[C@H](CO)[C@H](O)[C@H](O)[C@H]1O [Melibionic Acid]
[reply] not fulfilled

[ask] Is 590 nm absorbance normalized to zero hour (substrate use), 2 hr at least 0.9? Consider C[C@@H]1OC(O)[C@@H](O)[C@H](O)[C@@H]1O (stereo partly drawn) [L-Fucose]
[reply] not fulfilled

[ask] Is 590 nm absorbance normalized to zero hour (substrate use), 2 hr at least 0.9? Consider OC[C@H]1O[C@@H](OC[C@H]2OC(O)[C@H](O)[C@@H](O)[C@@H]2O)[C@H](O)[C@@H](O)[C@@H]1O (some centres unmarked) [Gentio-biose]
[reply] fulfilled

[ask] Is 590 nm absorbance normalized to zero hour (substrate use), 2 hr at least 0.9? Consider N[C@@H](C(=O)O)[C@@H](O)[C@H](O)[C@H](O)CO [D-Glucosaminic Acid]
[reply] fulfilled

[ask] Is 590 nm absorbance normalized to zero hour (substrate use), 2 hr at least 0.9? Consider CC(=O)N[C@H]1[C@H]([C@H](O)[C@H](O)CO)OC(O)(C(=O)O)C[C@@H]1O (some centres unmarked) [n-acetyl-neuraminic acid]
[reply] not fulfilled

[ask] Is 590 nm absorbance normalized to zero hour (substrate use), 2 hr at least 0.9? Consider CCC(=O)C(=O)O [a-Keto-Butyric Acid]
[reply] fulfilled
